target: human glucagon receptor (human, UniProt P47871 26-477); experiment: cell-based or functional assay
Sequence (P47871 26-477): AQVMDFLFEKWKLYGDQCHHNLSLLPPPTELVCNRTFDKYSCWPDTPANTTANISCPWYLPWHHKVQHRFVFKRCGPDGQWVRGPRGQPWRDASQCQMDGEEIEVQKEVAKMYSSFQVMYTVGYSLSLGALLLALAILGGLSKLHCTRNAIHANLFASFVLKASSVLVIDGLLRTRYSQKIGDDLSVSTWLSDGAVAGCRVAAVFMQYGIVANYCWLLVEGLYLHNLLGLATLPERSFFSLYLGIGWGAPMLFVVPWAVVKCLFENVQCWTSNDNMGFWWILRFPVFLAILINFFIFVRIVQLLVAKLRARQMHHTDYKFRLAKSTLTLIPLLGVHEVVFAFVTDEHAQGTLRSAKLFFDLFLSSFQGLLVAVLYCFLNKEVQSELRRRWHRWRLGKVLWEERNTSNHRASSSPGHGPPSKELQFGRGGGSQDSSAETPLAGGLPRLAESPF
Ends that are not written are not given here.
Each entry below carries its recorded cAMP pA2.
Answer using only a numeral; do not append any unit.

Study these solved cases before continuing.
Endpoint output: cAMP pA2 of FTSKYSKYLDSRRAQDFVQWLMNT-NH2 (also called [K^9]Glucagon(aa6-29)-NH2; peptide no; 16) [[Lys^9]Glucagon(aa6-29)-NH2] . Value?
6.58

Endpoint output: cAMP pA2 of GTFTSEYSKYLDSRRAQDFVQWLMNT-NH2 (also called peptide no) [[Glu^9]Glucagon(aa4-29)-NH2] . Value?
7.05

Endpoint output: cAMP pA2 of FTSEYSKYLDSRRAQDFVQWLMNT-NH2 (also called [E^9]Glucagon(aa6-29)-NH2; peptide no; 11) [[Glu^9]Glucagon(aa6-29)-NH2] . Value?
7.16

Continuing:
Endpoint output: cAMP pA2 of FTSDYSKYLDSRRAQDFVQWLMNT-NH2 (also called peptide no; 15) [Glucagon(aa6-29)-NH2] . Value?
6.94
